tested on: human endothelin-1 gene expression in CALU-6 cells; test: Endothelin-1 gene expression in CALU-6 cells, quantitative RT-PCR dose-titration; format: cell-based; conditions: Homo sapiens; mean ± SEM, endothelin-1 down-regulation, dose-titration experiments (n = 3 to n = 18), CALU-6, 24 hr
MEASUREMENT_KIND: IC50 (nM)

1) COc1ccc(OC(=O)N(CC(=O)O)Cc2ccc(OCCc3nc(-c4ccccc4)oc3C)cc2)cc1 18

====

system: human renin gene expression in CALU-6 cells; assay: Renin gene expression in CALU-6 cells, quantitative RT-PCR dose-titration; type: cell-based; conditions: Homo sapiens; mean ± SEM, renin up-regulation, dose-titration experiments (n = 3 to n = 18), CALU-6, 24 hr
MEASUREMENT_KIND: EC50 (nM)

1) COc1ccc(OC(=O)N(CC(=O)O)Cc2ccc(OCCc3nc(-c4ccccc4)oc3C)cc2)cc1 96.3
